# credit: the Human Domainome abundance scans (Beltran et al. 2025)

B1: Formin-binding protein 4, residues 200 to 261; numbered along this chain, Q8N3X1 (parent)
chain: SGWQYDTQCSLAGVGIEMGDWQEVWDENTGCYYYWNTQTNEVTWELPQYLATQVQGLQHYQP

Variants of: B1
Test: abundance fitness (aPCA) (normalised: wild type 0, dead -1); higher = more abundant; growth selection in yeast, the domain comes from the species named
Conditions: Homo sapiens
Measured endpoint: abundance fitness
Reply briefly: the number, and no unit.

In: State its abundance fitness for this variant: `SGWQYDTQCSLIGVGIEMGDWQEVWDENTGCYYYWNTQTNEVTWELPQYLATQVQGLQHYQP`
Out: -0.363

In: Given `SGWQYDTQCSLAGVGIEMGDWQEVWDENTGCYYYWNTQTNEVTWELPQYLATQVQMLQHYQP` , respond with its abundance fitness.
Out: -0.367

In: Supply reported abundance fitness belonging to this variant: `SGWQYDTQCSLAGVGIEMGDWQEVWDENTGCYYYWNTQTNEVTWPLPQYLATQVQGLQHYQP`
Out: -0.552

In: Supply abundance fitness value. Item: `SGWQYDTQCSVAGVGIEMGDWQEVWDENTGCYYYWNTQTNEVTWELPQYLATQVQGLQHYQP`
Out: -0.192

In: Complete the entry with abundance fitness for `SGWQYDTQCSLAGVGIEQGDWQEVWDENTGCYYYWNTQTNEVTWELPQYLATQVQGLQHYQP`
Out: -0.69

In: State its abundance fitness for this variant: `SGWQYDTQCSLAGVGIEMGDWQEVWDENTGCYYYWNSQTNEVTWELPQYLATQVQGLQHYQP`
Out: 0.019

In: Indicate its recorded abundance fitness; the variant in question is `SGAQYDTQCSLAGVGIEMGDWQEVWDENTGCYYYWNTQTNEVTWELPQYLATQVQGLQHYQP`
Out: 0.002

In: Give the reported abundance fitness for this variant. `SGWQYDTQCSLAGVGLEMGDWQEVWDENTGCYYYWNTQTNEVTWELPQYLATQVQGLQHYQP`
Out: -0.137

In: Item `SGWQYDTQCSCAGVGIEMGDWQEVWDENTGCYYYWNTQTNEVTWELPQYLATQVQGLQHYQP` : provide abundance fitness
Out: -0.429

In: Note down abundance fitness recorded for `SGWQYDTQCSLAGVGIEMGDWQEVWDENTGCYYYDNTQTNEVTWELPQYLATQVQGLQHYQP`
Out: -0.159

In: Kindly indicate its recorded abundance fitness. Item: `SGWQYDTQCSLAGVGIEMGDWQEVWDENTGCYYYWNTQTNEVTWECPQYLATQVQGLQHYQP`
Out: -0.309

In: Identify measured abundance fitness associated with `SGWQYDTQCSLAGVGIEMGDWQEVWDENTGGYYYWNTQTNEVTWELPQYLATQVQGLQHYQP`
Out: -0.125

In: Look up abundance fitness of `SGWQYDTHCSLAGVGIEMGDWQEVWDENTGCYYYWNTQTNEVTWELPQYLATQVQGLQHYQP` and report it.
Out: 0.041

In: Provide one value: measured abundance fitness of `SGWQYDTQCSLAGVGIEMGDAQEVWDENTGCYYYWNTQTNEVTWELPQYLATQVQGLQHYQP`
Out: -0.948

In: Answer with the recorded abundance fitness of `SGWQYDTQCSLAGVGIEMGDWQEVWDENTGCYYYWNTQTNEVTWELPTYLATQVQGLQHYQP` only.
Out: 0.053

In: Hello, please tell me recorded abundance fitness for this one: `SGWQYDTQCSLAGVGIEMGDWQEVWDENTGCYYYWNTQTNEVTWELPQYLATQVQGLQHYQG`
Out: -0.028

In: # return recorded abundance fitness for input `SGWQYDTQCSLAGVGIEMGDLQEVWDENTGCYYYWNTQTNEVTWELPQYLATQVQGLQHYQP`
Out: -0.847

In: Supply reported abundance fitness belonging to this variant: `SGWQYDTQCSDAGVGIEMGDWQEVWDENTGCYYYWNTQTNEVTWELPQYLATQVQGLQHYQP`
Out: -0.429

In: Return the recorded abundance fitness value; entry: `SGLQYDTQCSLAGVGIEMGDWQEVWDENTGCYYYWNTQTNEVTWELPQYLATQVQGLQHYQP`
Out: -0.003

In: Quickly give me recorded abundance fitness for `SGWQYDTQCSLAGVIIEMGDWQEVWDENTGCYYYWNTQTNEVTWELPQYLATQVQGLQHYQP`
Out: -0.67

In: Please indicate abundance fitness recorded for `SGWQYDTQCSLAGVGIEMGDWQEVWDENTGCYYYWNTVTNEVTWELPQYLATQVQGLQHYQP`
Out: -0.126

In: Note down abundance fitness recorded for `SGWQYDTQCSLAGVGIEMMDWQEVWDENTGCYYYWNTQTNEVTWELPQYLATQVQGLQHYQP`
Out: -0.525

In: In one line, give reported abundance fitness of the entry `SGWQYDTQCSLAGVGQEMGDWQEVWDENTGCYYYWNTQTNEVTWELPQYLATQVQGLQHYQP` .
Out: -0.621

In: Look up and report measured abundance fitness for this entry: `SGWQYDTQCSLAGVGIEMGDWQEVWDENTGCYYYWNTQTNQVTWELPQYLATQVQGLQHYQP`
Out: 0.014

In: Fill in reported abundance fitness for this entry: `SGWHYDTQCSLAGVGIEMGDWQEVWDENTGCYYYWNTQTNEVTWELPQYLATQVQGLQHYQP`
Out: 0.126

In: For the variant `SGWQYDTQCSLAGVGIEMGDWQEVWDENTGCYYYWNTQTNEVTWELPQYLYTQVQGLQHYQP` , give its reported abundance fitness.
Out: -0.124

In: Return the recorded abundance fitness value; entry: `SGWQYDTQCSLAGVGIEMGDWQEVWDENTGCYYYYNTQTNEVTWELPQYLATQVQGLQHYQP`
Out: -0.271

In: Return the recorded abundance fitness value; entry: `SGWQYDTQCSLAGVGIEMGDWQEVWDENTGCYYYWNTQTNEVTWELPQYLATQVQGEQHYQP`
Out: -0.093

In: Supply abundance fitness value. Item: `SGWQYDTQCSLAGVGIEMGDWQEVWDENTGCYYYWNTFTNEVTWELPQYLATQVQGLQHYQP`
Out: -0.346

In: Give the value of abundance fitness reported for the following: `SGWQYDTQCSLAGVGIEMGDWQEVWDENTGCYYYWNTQTNEVTWELPQYLATQVQCLQHYQP`
Out: -0.255

In: Give the reported abundance fitness for this variant. `SGWQYDTQCSLAGVGIQMGDWQEVWDENTGCYYYWNTQTNEVTWELPQYLATQVQGLQHYQP`
Out: -0.038

In: Tell us which abundance fitness value is on record for `SGWQYDTQCSLAGVGIEMGDWQEVWDENTGCYYYWNTQTNEVTWELPQYDATQVQGLQHYQP`
Out: -1.04

In: Recall and state the measured abundance fitness for `SGWQYDTQCSLAGVGIEMGRWQEVWDENTGCYYYWNTQTNEVTWELPQYLATQVQGLQHYQP` .
Out: -0.022

In: Return the recorded abundance fitness value; entry: `SGWQYDTQCSLAGPGIEMGDWQEVWDENTGCYYYWNTQTNEVTWELPQYLATQVQGLQHYQP`
Out: -0.698

In: Dear colleague, please send me the reported abundance fitness for `SGWQYDTQCSLAGVGIEMGDMQEVWDENTGCYYYWNTQTNEVTWELPQYLATQVQGLQHYQP` when you can.
Out: -0.498

In: Report abundance fitness for `SGWQYDTQCSLAGVGIEMGDWQEVWDENTGCYYYWNTQTNEVTWELPKYLATQVQGLQHYQP`
Out: 0.129

In: State its abundance fitness for this variant: `SGWQYDTQCVLAGVGIEMGDWQEVWDENTGCYYYWNTQTNEVTWELPQYLATQVQGLQHYQP`
Out: -0.701

In: Look up and report measured abundance fitness for this entry: `SGWQYDTQCSLAGVGIEMGDWQEVWDENTGCYYYWNTQTNEVTWELFQYLATQVQGLQHYQP`
Out: -1.1

In: Provide abundance fitness value for the following variant: `SCWQYDTQCSLAGVGIEMGDWQEVWDENTGCYYYWNTQTNEVTWELPQYLATQVQGLQHYQP`
Out: -0.276

In: State, in one line, measured abundance fitness of `SGWQYDTQCSLAGVGIEMGGWQEVWDENTGCYYYWNTQTNEVTWELPQYLATQVQGLQHYQP`
Out: -0.254
